Cited source: patent US7462716B2

Entries and their iNOS (% reduction vs LPS)
System: iNOS
Assay: Western blot of iNOS protein in LPS-stimulated RAW264.7 cells
Assay type: cell-based
Details: 10 μM; RAW264.7, LPS 1 μg/ml 16 h; negative = increase vs LPS
Method: The experiments were performed using RAW264.7 monocyte macrophage cell line. […] At the end of the incubation, the cells were harvested in lysis buffer and the protein content was measured. Western Blot of inducible iNOS and COX2 proteins (representatives of an ongoing inflammatory process) was performed. The obtained results reported in Table 2 are expressed as % reduction of optical density of each treatment vs. LPS-treated samples.

>  <COMPOUND>
CC(C)n1c(/C=C/C(O)CC(O)CC(=O)O)c(-c2ccc(F)cc2)c2ccccc21 (centres unmarked) [Fluvastatin, fluvastatin, reference compound]

>  <iNOS (% reduction vs LPS), %>
−14.8

$$$$
>  <COMPOUND>
CC(C)n1c(/C=C/[C@@H](O)C[C@@H](O)CC(=O)OCCCCO[N+](=O)[O-])c(-c2ccc(F)cc2)c2ccccc21 (relative stereo) [Compound of EX. 3]

>  <iNOS (% reduction vs LPS), %>
44.8

$$$$
>  <COMPOUND>
CC(C)c1c(C(=O)Nc2ccccc2)c(-c2ccccc2)c(-c2ccc(F)cc2)n1CC[C@@H](O)C[C@@H](O)CC(=O)O [Atorvastatin, atorvastatin, reference compound]

>  <iNOS (% reduction vs LPS), %>
20

$$$$
>  <COMPOUND>
CC(C)c1c(C(=O)Nc2ccccc2)c(-c2ccccc2)c(-c2ccc(F)cc2)n1CC[C@@H](O)C[C@@H](O)CC(=O)OCCCCO[N+](=O)[O-] [Compound of EX. 7]

>  <iNOS (% reduction vs LPS), %>
45

$$$$
>  <COMPOUND>
CC(C)n1c(/C=C/[C@@H](O)C[C@@H](O)CC(=O)OCc2ccc(CO[N+](=O)[O-])cc2)c(-c2ccc(F)cc2)c2ccccc21 (relative stereo) [Compound of EX. 4]

>  <iNOS (% reduction vs LPS), %>
22.4

$$$$
